# Test method notes: physchem
# Condition parameters: pH 2.7
Value type: chromatographic logP

If you can, please state the reported chromatographic logP value of O=C1NC(=O)C(c2ccc(Nc3ncc(Cl)c(NCC(F)(F)F)n3)cc2)N1 (stereo not shown) .
1.47

Follow-up item: C=CCNC(=O)c1ccc(Nc2ncc(Cl)c(NCC(F)F)n2)cc1
1.84

Follow-up item: CC1(C(=O)Nc2ccc(Nc3ncc(Cl)c(NCC(F)(F)F)n3)cc2)CC1
2.16

Follow-up item: CS(=O)(=O)c1ccc(Nc2ncc(Cl)c(NCC(F)(F)F)n2)cc1
2.21

====

# Test method notes: physchem
# Condition parameters: pH 2.7
Value type: chromatographic logP
Form: value (number only, do not type unit).

If you can, please state the reported chromatographic logP value of O=S(=O)(c1cccc(Nc2ncc(Cl)c(NCC(F)(F)F)n2)c1)N1CCCCC1 [Verbindung 26] .
2.58

Follow-up item: CCOC(=O)Nc1ccc(Nc2ncc(Cl)c(NCC(F)(F)F)n2)cc1 [Verbindung 32]
2.11

Follow-up item: CC(=O)Nc1cccc(Nc2ncc(Cl)c(NCC(F)(F)F)n2)c1 [Verbindung 19]
1.66

Follow-up item: CNC(=O)c1ccc(Nc2ncc(Cl)c(NCC(F)(F)F)n2)cc1 [Verbindung 22]
1.66

Follow-up item: Cc1cccc(Nc2ncc(Cl)c(NCC(F)(F)F)n2)c1 [Verbindung 44]
2.88

Follow-up item: CC(=O)c1cccc(Nc2ncc(Cl)c(NCC(F)(F)F)n2)c1 [Verbindung 29]
2.39

Follow-up item: CNC(=O)c1cccc(Nc2ncc(Cl)c(NCC(F)(F)F)n2)c1 [Verbindung 23]
1.66

Follow-up item: CSc1ccc(Nc2ncc(Cl)c(NCC(F)(F)F)n2)cc1 [Verbindung 25]
2.92

Follow-up item: N#Cc1ccc(Nc2ncc(Cl)c(NCC(F)(F)F)n2)cc1 [Verbindung 8]
2.77

====

Exercise: for every item that follows, state its recorded chromatographic logP.
# Test method notes: physchem
# Condition parameters: pH 2.7
Form: value (number only, do not type unit).

If you can, please state the reported chromatographic logP value of CC(=O)c1ccc(Nc2ncc(Cl)c(NCC(F)(F)F)n2)cc1 .
2.51

Follow-up item: CSc1ccc(Nc2ncc(Cl)c(NCC(F)(F)F)n2)cc1Cl
3.55

Follow-up item: CCOC(=O)Nc1cccc(Nc2ncc(Cl)c(NCC(F)(F)F)n2)c1
2.36

Follow-up item: CC(=O)Nc1cc(Nc2ncc(Cl)c(NCC(F)(F)F)n2)ccc1C
1.61

Follow-up item: COc1ccc(Nc2ncc(Cl)c(NCC(F)(F)F)n2)cc1
2.06

Follow-up item: CC(C)(CF)C(=O)Nc1cccc(Nc2ncc(Cl)c(NCC(F)(F)F)n2)c1
2.42

Follow-up item: CC(C)(C)C(=O)Nc1cccc(Nc2ncc(Cl)c(NCC(F)(F)F)n2)c1
2.51

Follow-up item: CCN(C(C)=O)c1ccc(Nc2ncc(Cl)c(NCC(F)(F)F)n2)cc1
2.13

Follow-up item: N#Cc1cccc(Nc2ncc(Cl)c(NCC(F)(F)F)n2)c1
2.67

====

# Test method notes: physchem
# Condition parameters: pH 2.7
Label met when chromatographic logP is strictly below 2; at or above that, label not met.

chromatographic logP strictly < 2 for this compound? COC(=O)Nc1ccc(Nc2ncc(Cl)c(NCC(F)(F)F)n2)cc1
met

Follow-up item: CSc1cccc(Nc2ncc(Cl)c(NCC(F)(F)F)n2)c1
not met

Follow-up item: O=C(Nc1ccc(Nc2ncc(Cl)c(NCC(F)(F)F)n2)cc1)C(F)(F)F
not met

Follow-up item: CC(C)(C)C(=O)Cc1ccc(Nc2ncc(Cl)c(NCC(F)(F)F)n2)cc1
not met

Follow-up item: CC(CC(F)(F)F)Nc1nc(Nc2ccccc2)ncc1Br (stereo not shown)
not met

Follow-up item: CC(=O)N(C)c1ccc(Nc2ncc(Cl)c(NCC(F)(F)F)n2)cc1
met

Follow-up item: Cc1cccc(Nc2ncc(Cl)c(NCC(F)F)n2)c1
not met

Follow-up item: N#CCc1cccc(Nc2ncc(Cl)c(NCC(F)F)n2)c1
met

Follow-up item: C=C(C)C(=O)Nc1cccc(Nc2ncc(Cl)c(NCC(F)(F)F)n2)c1
not met

Follow-up item: CN(C)C(=O)c1ccc(Nc2ncc(Cl)c(NCC(F)F)n2)cc1
met

Follow-up item: CN(C)S(=O)(=O)c1ccc(Nc2ncc(Cl)c(NCC(F)(F)F)n2)cc1
not met

Follow-up item: COc1cccc(Nc2ncc(Cl)c(NCC(F)(F)F)n2)c1
not met

Follow-up item: CN(C)C(=O)c1ccc(Nc2ncc(Cl)c(NCC(F)(F)F)n2)cc1
met

Follow-up item: CC(=O)Nc1ccc(Nc2ncc(Cl)c(NCC(F)(F)F)n2)cc1
met

Follow-up item: COC(=O)Nc1cccc(Nc2ncc(Cl)c(NCC(F)(F)F)n2)c1
not met

Follow-up item: FC(F)(F)CNc1nc(Nc2cccc(OC(F)(F)F)c2)ncc1Cl
not met

Follow-up item: COc1cc(Nc2ncc(Cl)c(NCC(F)(F)F)n2)ccc1NC(C)=O
met
